Target: T1, biotinylated cyno IL-33 (cynomolgus monkey, UniProt A0A2K5W3I1 112-269, biotin-labeled with EZ-LINK NHS-PEG4-Biotin)
T1 construct: also called biotin-cyIL-33
T1 sequence: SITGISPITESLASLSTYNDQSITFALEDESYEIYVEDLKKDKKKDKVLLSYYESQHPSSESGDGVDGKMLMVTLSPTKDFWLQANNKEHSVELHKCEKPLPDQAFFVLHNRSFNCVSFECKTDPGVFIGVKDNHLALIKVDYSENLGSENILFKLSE
Assay: competitive ELISA, biotin-cyIL-33 to coated hST2-Fc
property: Maximum Blocking (%)
Provide the reading as a plain figure in %.

Value of measured Maximum Blocking for the entry H1M9568N (antibody, IgG1, V domains shown, also called RG3) VH: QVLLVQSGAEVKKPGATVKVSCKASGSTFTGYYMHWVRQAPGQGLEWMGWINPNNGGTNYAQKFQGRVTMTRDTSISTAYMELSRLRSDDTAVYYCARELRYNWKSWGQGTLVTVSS VL: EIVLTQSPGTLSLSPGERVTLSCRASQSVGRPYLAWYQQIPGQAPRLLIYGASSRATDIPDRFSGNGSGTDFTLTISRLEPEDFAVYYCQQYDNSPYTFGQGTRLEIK : 45
